# Target of assay: GABA-A receptor; alpha-2/beta-3/gamma-2 (Homo sapiens, UniProt P18507+P28472+P47869)
# Sequence (P18507 whole entry): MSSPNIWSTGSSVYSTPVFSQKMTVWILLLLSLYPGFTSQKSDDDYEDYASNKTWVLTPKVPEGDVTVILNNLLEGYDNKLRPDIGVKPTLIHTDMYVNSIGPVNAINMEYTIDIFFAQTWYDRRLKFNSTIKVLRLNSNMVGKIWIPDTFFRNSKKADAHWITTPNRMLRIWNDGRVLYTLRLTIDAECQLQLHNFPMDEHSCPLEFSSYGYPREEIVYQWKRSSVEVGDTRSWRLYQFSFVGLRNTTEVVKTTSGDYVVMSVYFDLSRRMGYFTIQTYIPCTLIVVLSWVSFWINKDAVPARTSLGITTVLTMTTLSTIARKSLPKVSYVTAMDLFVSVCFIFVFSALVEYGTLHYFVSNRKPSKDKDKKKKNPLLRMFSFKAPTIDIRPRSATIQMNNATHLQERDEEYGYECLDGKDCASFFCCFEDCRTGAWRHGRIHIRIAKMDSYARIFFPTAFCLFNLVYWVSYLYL
# Sequence (P28472 whole entry): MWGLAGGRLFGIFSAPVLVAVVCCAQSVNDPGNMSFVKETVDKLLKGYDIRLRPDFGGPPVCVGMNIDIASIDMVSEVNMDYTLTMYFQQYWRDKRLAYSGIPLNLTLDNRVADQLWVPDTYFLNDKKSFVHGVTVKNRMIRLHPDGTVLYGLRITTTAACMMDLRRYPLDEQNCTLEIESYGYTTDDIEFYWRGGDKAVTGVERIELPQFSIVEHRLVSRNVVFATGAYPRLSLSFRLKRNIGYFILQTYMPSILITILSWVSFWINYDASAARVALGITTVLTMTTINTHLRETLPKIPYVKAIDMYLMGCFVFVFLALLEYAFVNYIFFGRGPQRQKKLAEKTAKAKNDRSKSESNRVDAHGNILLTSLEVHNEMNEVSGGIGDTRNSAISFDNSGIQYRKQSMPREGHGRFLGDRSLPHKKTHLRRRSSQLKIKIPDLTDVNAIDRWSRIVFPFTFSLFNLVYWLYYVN
# Sequence (P47869 whole entry): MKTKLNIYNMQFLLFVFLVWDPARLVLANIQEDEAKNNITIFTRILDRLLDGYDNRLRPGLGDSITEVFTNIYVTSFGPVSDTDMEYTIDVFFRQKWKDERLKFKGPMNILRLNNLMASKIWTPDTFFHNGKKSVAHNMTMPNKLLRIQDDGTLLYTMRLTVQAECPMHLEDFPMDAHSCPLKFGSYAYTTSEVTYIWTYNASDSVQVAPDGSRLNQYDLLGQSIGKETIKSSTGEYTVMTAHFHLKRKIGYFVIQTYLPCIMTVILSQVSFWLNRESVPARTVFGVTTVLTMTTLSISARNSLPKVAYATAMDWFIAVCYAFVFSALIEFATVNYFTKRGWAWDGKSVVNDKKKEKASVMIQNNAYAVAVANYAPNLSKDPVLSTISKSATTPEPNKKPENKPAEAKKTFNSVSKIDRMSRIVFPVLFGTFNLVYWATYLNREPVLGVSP
# Test summary: Binding affinity for alpha-2-beta-3-gamma-2 GABA-A benzodiazepine receptor subunits
# Format: protein-complex assay
pKi: −log10 of the molar value.
Reported property: pKi

INSERT INTO measurements (mol_smiles, test_result) VALUES
  ('CCOC(=O)c1ncn2c1CN(C)C(=O)c1cc(Br)ccc1-2', 7.57);

----------
# Target of assay: GABA-A receptor; alpha-3/beta-3/gamma-2 (Homo sapiens, UniProt P18507+P28472+P34903)
# Test summary: Binding affinity against alpha-3-beta-3-gamma-2 GABAA/BzR receptor subtype.
Reported property: Ki (nM)

INSERT INTO assay_data (mol_smiles, reported_property, modifier, test_result) VALUES
  ('CCOC(=O)c1ncn2c1[C@H]1CCCN1C(=O)c1cc(Br)ccc1-2', 'Ki', '>', 1000),
  ('C=Cc1ccc2c(c1)C(=O)N(C)Cc1c(C(=O)OCC)ncn1-2', 'Ki', '=', 6.9),
  ('C#Cc1ccc2c(c1)C(=O)N1CC[C@H]1c1c(-c3nc(C)no3)ncn1-2', 'Ki', '=', 91),
  ('CCOC(=O)c1ncn2c1CN(C)C(=O)c1cc(Br)ccc1-2', 'Ki', '=', 13),
  ('CN1Cc2c(C(=O)OC(C)(C)C)ncn2-c2ccc(O)cc2C1=O', 'Ki', '=', 0.53),
  ('CCc1ncn2c1CN(C)C(=O)c1cc(Cl)ccc1-2', 'Ki', '=', 1130),
  ('CN1Cc2c(CCl)ncn2-c2ccc(Cl)cc2C1=O', 'Ki', '>', 300),
  ('C#Cc1ccc2c(c1)C(=O)N(C)Cc1c(C(=O)OC(C)(C)C)ncn1-2', 'Ki', '=', 18.7),
  ('C#Cc1ccc2c(c1)C(=O)N1CCC[C@@H]1c1c(C(=O)OCC)ncn1-2', 'Ki', '=', 102),
  ('CCOC(=O)c1ncn2c1CN(C)C(=O)c1cc(OCC)ccc1-2', 'Ki', '=', 16.9),
  ('CN1Cc2c(C(=O)OCC3CC3)ncn2-c2ccc(Cl)cc2C1=O', 'Ki', '=', 42.5),
  ('CN1Cc2c(C(=O)OC(C)(C)C)ncn2-c2ccc(C#CC[Si](C)(C)C)cc2C1=O', 'Ki', '=', 337),
  ('CCOC(=O)c1ncn2c1[C@@H]1CCN1C(=O)c1cc(C#C[Si](C)(C)C)ccc1-2', 'Ki', '=', 48),
  ('CN1Cc2c(C(=O)OC(C)(C)C)ncn2-c2ccc(C#C[Si](C)(C)C)cc2C1=O', 'Ki', '=', 255),
  ('C#Cc1ccc2c(c1)C(=O)N1CC[C@H]1c1c(-c3nc(CC)no3)ncn1-2', 'Ki', '=', 184),
  ('CN1Cc2c(C(=O)OC(C)(C)C)ncn2-c2ccc([N+](=O)[O-])cc2C1=O', 'Ki', '=', 30.2),
  ('CN1Cc2c(C(=O)OC(C)(C)C)ncn2-c2ccc(N=C=S)cc2C1=O', 'Ki', '=', 50),
  ('CCN(CC)Cc1ncn2c1CN(C)C(=O)c1cc(Cl)ccc1-2', 'Ki', '=', 15400),
  ('CN1Cc2c(C(=O)OC(C)(C)C)ncn2-c2ccc(N3CCCC3)cc2C1=O', 'Ki', '=', 169),
  ('CCOC(=O)c1ncn2c1[C@@H]1CCCN1C(=O)c1cc(OC)ccc1-2', 'Ki', '=', 27.5),
  ('CCOC(=O)c1ncn2c1[C@H]1CCCN1C(=O)c1cc(C#C[Si](C)(C)C)ccc1-2', 'Ki', '>', 1000),
  ('C#Cc1ccc2c(c1)C(=O)N1CCC[C@H]1c1c(C(=O)OCC)ncn1-2', 'Ki', '=', 27),
  ('CCc1ccc2c(c1)C(=O)N(C)Cc1c(C(=O)OC(C)(C)C)ncn1-2', 'Ki', '=', 25.3),
  ('CCOC(=O)c1ncn2c1CN(C)C(=O)c1cc(CC)ccc1-2', 'Ki', '=', 26.1),
  ('C#Cc1ccc2c(c1)C(=O)N1CCC[C@H]1c1c(-c3nc(C(C)C)no3)ncn1-2', 'Ki', '=', 97),
  ('CN1Cc2c(CO)ncn2-c2ccc(Cl)cc2C1=O', 'Ki', '>', 300),
  ('CN1Cc2c(C(=O)OC(C)(C)C)ncn2-c2ccc(N=[N+]=[N-])cc2C1=O', 'Ki', '=', 5.66),
  ('COc1ccc2c(c1)C(=O)N(C)Cc1c(C(=O)OC(C)(C)C)ncn1-2', 'Ki', '=', 7.42),
  ('CN1Cc2c(C(=O)OC(C)(C)C)ncn2-c2ccc(Cl)cc2C1=O', 'Ki', '=', 29.1),
  ('CCCCCc1ncn2c1CN(C)C(=O)c1cc(Cl)ccc1-2', 'Ki', '=', 2910),
  ('C#Cc1ccc2c(c1)C(=O)N1CCC[C@H]1c1c(-c3nc(CC)no3)ncn1-2', 'Ki', '=', 85),
  ('CCOC(=O)c1ncn2c1CN(C)C(=O)c1cc(C#CC[Si](C)(C)C)ccc1-2', 'Ki', '>', 300),
  ('CC(=O)c1ncn2c1CN(C)C(=O)c1cc(Cl)ccc1-2', 'Ki', '=', 22100),
  ('CN1Cc2c(C(=O)OC(C)(C)C)ncn2-c2ccc(I)cc2C1=O', 'Ki', '=', 10.9),
  ('CCOC(=O)c1ncn2c1[C@@H]1CCN1C(=O)c1cc(Br)ccc1-2', 'Ki', '=', 6.7),
  ('C#Cc1ccc2c(c1)C(=O)N1CCC[C@@H]1c1c(-c3nc(C)no3)ncn1-2', 'Ki', '>', 1000),
  ('C#Cc1ccc2c(c1)C(=O)N1CC[C@H]1c1c(-c3nc(C(C)C)no3)ncn1-2', 'Ki', '=', 122),
  ('COCc1ncn2c1CN(C)C(=O)c1cc(Cl)ccc1-2', 'Ki', '>', 300),
  ('CCOCc1ncn2c1CN(C)C(=O)c1cc(Cl)ccc1-2', 'Ki', '>', 300),
  ('CN1Cc2c(C(=O)OC(C)(C)C)ncn2-c2ccc(Br)cc2C1=O', 'Ki', '=', 9.2),
  ('C#Cc1ccc2c(c1)C(=O)N(C)Cc1c(C(=O)OCC)ncn1-2', 'Ki', '=', 25.8),
  ('C#Cc1ccc2c(c1)C(=O)N1CC[C@H]1c1c(C(=O)OCC)ncn1-2', 'Ki', '=', 10);
